# assayedTarget: Dual specificity mitogen-activated protein kinase kinase MEK1/2 (Rattus norvegicus, UniProt Q01986+P36506)
# experimentalDetails: Inhibition of MEK1/2 in rat IEC6 cells assessed as reduction in ERK1/2 loop phosphorylation dosed 30 mins before to stimulation with 10% serum for 5 mins by immunoblotting method
measureName: IC50 (µM)

1 = COc1cccc(-c2cc(=O)c3cccc(NCCCO)c3o2)c1N
2 = CCOc1cccc(-c2cc(=O)c3ccccc3o2)c1N
3 = COc1cccc(-c2cc(=O)c3cc(Cl)cc(NCC[C@H](O)CO)c3o2)c1N
Query :: hey, can you rank those compounds up there by IC50? biggest number first please I would appreciate it if you listed the labels in the requested order.
Result :: 3, 2, 1
(3: 3.1 µM, 2: 1 µM, 1: 0.097 µM)
